test: Evaluation of conversion rate to active form in BALB/c mouse plasma (Experimental Example 3); assay type: in vitro ADME; settings: BALB/c, mouse, 0 min, 0.2 μmol/L
QUANTITY: Production rate (%) of Alvocidib

COMPOUND: CN1CC[C@H](c2c(O)cc(O)c3c(=O)cc(-c4ccccc4Cl)oc23)[C@H](OC(=O)c2ccccc2F)C1
QUANTITY: Production rate (%) of Alvocidib
ASSAY_RESULT: 2%
//
COMPOUND: CCOC(=O)O[C@@H]1CN(C)CC[C@@H]1c1c(O)cc(O)c2c(=O)cc(-c3ccccc3Cl)oc12 [Comparative Example 3, reference compound]
QUANTITY: Production rate (%) of Alvocidib
ASSAY_RESULT: 1%
//
COMPOUND: C[C@H](N)C(=O)O[C@@H]1CN(C)CC[C@@H]1c1c(O)cc(O)c2c(=O)cc(-c3ccccc3Cl)oc12 [Comparative Example 7, reference compound]
QUANTITY: Production rate (%) of Alvocidib
ASSAY_RESULT: 1%

* * *

assay: Evaluation of conversion rate to active form in buffer solution (Experimental Example 1); type: physicochemical; conditions: pH7.4, 1 hr, 37° C., 25 umol/L in buffer solution
Structures can show the parent of a compound that is named as a salt.

COMPOUND: CN1CC[C@H](c2c(OC(=O)N(C)CC3CCCCN3)cc(O)c3c(=O)cc(-c4ccccc4Cl)oc23)[C@H](O)C1 (stereo partly shown) [Example 8]
READOUT_UNIT: %
Production rate of Alvocidib: 55.2
--
COMPOUND: CCCN(CC1CCCCN1)C(=O)Oc1cc(O)c2c(=O)cc(-c3ccccc3Cl)oc2c1[C@H]1CCN(C)C[C@H]1O (stereo partly shown) [Example 9]
READOUT_UNIT: %
Production rate of Alvocidib: 73.6
--
COMPOUND: COCCN(CC1CCCCN1)C(=O)Oc1cc(O)c2c(=O)cc(-c3ccccc3Cl)oc2c1[C@H]1CCN(C)C[C@H]1O (stereo partly shown) [Example 12]
READOUT_UNIT: %
Production rate of Alvocidib: 65.9
--
COMPOUND: CN1CC[C@H](c2c(OC(=O)N(C)C[C@H]3CCCCN3)cc(O)c3c(=O)cc(-c4ccccc4Cl)oc23)[C@H](O)C1 [Example 4]
READOUT_UNIT: %
Production rate of Alvocidib: 42.0
--
COMPOUND: CCN(C[C@H]1CCCCN1)C(=O)Oc1cc(O)c2c(=O)cc(-c3ccccc3Cl)oc2c1[C@H]1CCN(C)C[C@H]1O [Example 2]
READOUT_UNIT: %
Production rate of Alvocidib: 56.4
--
COMPOUND: CN1CC[C@H](c2c(OC(=O)N(CCCC(F)(F)F)CC3CCCCN3)cc(O)c3c(=O)cc(-c4ccccc4Cl)oc23)[C@H](O)C1 (stereo partly shown) [Example 14]
READOUT_UNIT: %
Production rate of Alvocidib: 76.6
--
COMPOUND: CC(C)N(CC1CCCCN1)C(=O)Oc1cc(O)c2c(=O)cc(-c3ccccc3Cl)oc2c1[C@H]1CCN(C)C[C@H]1O (stereo partly shown) [Example 10]
READOUT_UNIT: %
Production rate of Alvocidib: 71.5
--
COMPOUND: CCNC(=O)Oc1cc(O)c2c(=O)cc(-c3ccccc3Cl)oc2c1[C@H]1CCN(C)C[C@H]1O [Comparative Example 1, reference compound]
READOUT_UNIT: %
Production rate of Alvocidib: 98.9
--
COMPOUND: CCN(CC1CCCCN1)C(=O)Oc1cc(O)c2c(=O)cc(-c3ccccc3Cl)oc2c1[C@H]1CCN(C)C[C@H]1O (stereo partly shown) [Example 7, dihydrochloride]
READOUT_UNIT: %
Production rate of Alvocidib: 60.8
--
COMPOUND: CN1CC[C@H](c2c(OC(=O)N(CCF)CC3CCCCN3)cc(O)c3c(=O)cc(-c4ccccc4Cl)oc23)[C@H](O)C1 (stereo partly shown) [Example 11]
READOUT_UNIT: %
Production rate of Alvocidib: 67.0
--
COMPOUND: CCCN(C[C@H]1CCCCN1)C(=O)Oc1cc(O)c2c(=O)cc(-c3ccccc3Cl)oc2c1[C@H]1CCN(C)C[C@H]1O [Example 6]
READOUT_UNIT: %
Production rate of Alvocidib: 65.7
--
COMPOUND: CCN(CCC1CCCCN1)C(=O)Oc1cc(O)c2c(=O)cc(-c3ccccc3Cl)oc2c1[C@H]1CCN(C)C[C@H]1O (stereo partly shown) [Example 16]
READOUT_UNIT: %
Production rate of Alvocidib: 77.8
--
COMPOUND: CN1CC[C@H](c2c(OC(=O)N(CCC(F)(F)F)CC3CCCCN3)cc(O)c3c(=O)cc(-c4ccccc4Cl)oc23)[C@H](O)C1 (stereo partly shown) [Example 13]
READOUT_UNIT: %
Production rate of Alvocidib: 65.5
